Test: Selectivity index, ratio of IC50 for electric eel AChE to IC50 for equine serum BuChE
For each record, write down the corresponding Ratio IC50.
Numbers only.

test_smiles=O=C(/C=C/c1cccc(OCCCCCN2CCc3ccccc3C2)c1)c1ccccc1O reported_measurement=7.2

Go through the list and state Ratio IC50 for each entry.
1. O=C(/C=C/c1cccc(OCCCCN2CCC(Cc3ccccc3)CC2)c1)c1ccccc1O
2. CN(C)c1ccc(/C=C/C(=O)c2ccc(OCCCCCCN3CCc4ccccc4C3)cc2O)cc1
3. O=C(/C=C/c1cccc(OCCCN2CCc3ccccc3C2)c1)c1ccccc1O
4. O=C(CCc1cccc(OCCCCN2CCc3ccccc3C2)c1)c1ccccc1O

[3.1, 0.6, 1.6, 36]

Go through the list and state Ratio IC50 for each entry.
1. O=C(/C=C/c1ccc(F)cc1)c1ccc(OCCCN2CCc3ccccc3C2)cc1O
2. O=C(/C=C/c1cccc(OCCCCCCN2CCc3ccccc3C2)c1)c1ccccc1O
3. COc1ccccc1/C=C/C(=O)c1ccc(OCCCCN2CCc3ccccc3C2)cc1O
4. O=C(/C=C/c1cccc(OCCCCN2CCc3ccccc3C2)c1)c1ccccc1O

1.7
6.6
1.6
6.2
